- Test system: corneodesmosine
- protocol.notes: Degradation of corneodesmosines in acetonic powders of stratum corneum (immunoblotting with antibody G36-19, chemiluminescence)
- Format: biochemical, human
- experimental.conditions: aqueous solution containing 2% of active agent, pH 8.0, 17 h incubation at 30° C., 33 and 46 kD bands, versus control without active agent
endpoint.name: Percentage increase in the degradation of corneodesmosine (%)
Numeric answer only, unit % assumed.

Given O=S(=O)(O)CCCN1CCOCC1 , state its recorded Percentage increase in the degradation of corneodesmosine. 39

Try this molecule next: O=S(=O)(O)CCN1CCN(CCS(=O)(=O)O)CC1 65

Here is the next molecule: O=S(=O)(O)CCN1CCN(CCO)CC1 65

Same thing, different molecule: NCC(=O)O [Glycine, reference compound] 51

And then O=S(=O)(O)CC(O)CN1CCN(CC(O)CS(=O)(=O)O)CC1 (centres unmarked) , what is it? 63
